Hi there, I'd appreciate the recorded tumor growth reduction for every entry that follows.
tested on: CM-Dil labelled HT-29 xenograft in zebrafish embryos; test: Zebrafish HT-29 xenograft antitumor assay; assay type: in vivo, zebrafish (Danio rerio); details: 72 hpi, 200 μM
The answer should read as a number with its unit following.

Look over these answered cases.
[[record]]
smi = "CC(C)[C@@H]1NC(=O)[C@@H]2CCCN2C1=O"
reported_measurement = "78%"

[[record]]
smi = "CC(C)C[C@@H]1NC(=O)[C@@H]2CCCN2C1=O"
reported_measurement = "68%"


For each of the compounds below, state tumor growth reduction.
1. O=C1N[C@@H](Cc2ccc(O)cc2)C(=O)N2CCC[C@@H]12
2. O=C1N[C@@H](Cc2ccccc2)C(=O)N2CCC[C@@H]12

## Result
74%
81%
